# Test system: ncRNAs (SEQ ID NO 28-89)
# Experiment Description: ncRNA arrays of melanocytes, keratinocytes, normal skin, melanoma cell lines and patient samples
# Design: species or system human
# Conditions: melanoma patient 23 sample compared to normal skin
Reported Property: ncRNA array expression, patient 23
Answers are plain numbers.

SEQ ID NO 76 (TGTTTCTAATGCATACTGTGAAAGGAAAAAAAATCACAGTTATCCACCTTCTCAGGGCCT; listed as DNA, chemistry not given here; listed as Homo sapiens)
0.7328
SEQ ID NO 84 (TTATTAAAAGGACTGAGGATCATGTGTGTTGGTGTGTCCCGGAGTCTGCTCTAAGGTAAA; listed as DNA, chemistry not given here; listed as Homo sapiens)
2.078
SEQ ID NO 62 (AATCGTTAATATCATTGATATTAAGTAATTTCCCCACTCTGAGTGAATACTTTGATGATG; listed as DNA, chemistry not given here; listed as Homo sapiens)
−0.5784
SEQ ID NO 81 (CTAGGGGCGGAGTTTCTCGTAAGGGGCAAGGCCAAGGCATCTTGTATTGGGGCTGACAGG; listed as DNA, chemistry not given here; listed as Homo sapiens)
−1.288

Continue with the next substance.
Quick check: ncRNA array expression, patient 23 of SEQ ID NO 73 (AAAGTTTCCCCATAATGCTCTTGCAAGTGAATATGAGCTGTGGTTTTTGCAGTGGAGTTA; listed as DNA, chemistry not given here; listed as Homo sapiens) ?
0.07892

----------
So I've got a bunch of substances here, and I need their ncRNA array expression, patient 2 values.
# Test system: ncRNAs (SEQ ID NO 28-89)
# Experiment Description: ncRNA arrays of melanocytes, keratinocytes, normal skin, melanoma cell lines and patient samples
# Parameters: species or system human
# Conditions: melanoma patient 2 sample compared to normal skin
Numbers only.

Below, each entry is followed by its recorded ncRNA array expression, patient 2 result.
SEQ ID NO 81 (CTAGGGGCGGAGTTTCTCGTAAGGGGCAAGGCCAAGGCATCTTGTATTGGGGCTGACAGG; listed as DNA, chemistry not given here; listed as Homo sapiens)
−2.704
SEQ ID NO 43 (CTTAATCCACATTTGTTTTGAATTTTTCTGATTCCTATAGTACCATACTCTGATGCCTAT; listed as DNA, chemistry not given here; listed as Homo sapiens)
−1.3

Continue with the next substance.
Quick check: ncRNA array expression, patient 2 of SEQ ID NO 66 (TCCTTTTTATCTTGCACTCAGATGGTATTTTTAGAGATGTTTCTTCAATCAAAACAAGAT; listed as DNA, chemistry not given here; listed as Homo sapiens) ?
2.553

----------
# Test system: ncRNAs (SEQ ID NO 28-89)
# Experiment Description: ncRNA arrays of melanocytes, keratinocytes, normal skin, melanoma cell lines and patient samples
# Design: species or system human
# Conditions: melanoma patient 2 sample compared to normal skin
# Description: An ncRNA array platform that contains over 10,000 putative (>200 nt) ncRNAs including most of the known ncRNAs in mouse and human was conducted to evaluate ncRNAs within melanoma. Lack of coding potential was estimated by an algorithm that scores various characteristics of protein-coding genes, including open reading frame length, synonymous/non-synonymous base substitution rates and similarity to known proteins. […]
Reported Property: ncRNA array expression, patient 2
Answers are plain numbers.

Below, each entry is followed by its recorded ncRNA array expression, patient 2 result.
SEQ ID NO 29 (TTAAATACATGTTTCTAATATTTTAGTGTTTTGTATTTAGGTTATTTATTCTTTGTATCT; DNA, backbone and methylation of C not given here; listed as Homo sapiens)
3.623
SEQ ID NO 31 (TTGCTTTTGTATTTGTAATTTTATGACATTTCGAAGTTTCTGTGTCTTAACTCTTTTTAA; listed as DNA, chemistry not given here; listed as Homo sapiens)
2.958

Continue with the next substance.
Quick check: ncRNA array expression, patient 2 of SEQ ID NO 87 (GGGATATTTTTAAGGGGAAGGGGAAGGATAGAGAGAAAGTGCAGGCAGGGCTGGGGTCTG; listed as DNA, chemistry not given here; listed as Homo sapiens) ?
−2.131

----------
So I've got a bunch of substances here, and I need their ncRNA array expression, patient 24 values.
# Test system: ncRNAs (SEQ ID NO 28-89)
# Experiment Description: ncRNA arrays of melanocytes, keratinocytes, normal skin, melanoma cell lines and patient samples
# Set-up: species or system human
# Conditions: melanoma patient 24 sample compared to normal skin
One number for each entry.

Below, each entry is followed by its recorded ncRNA array expression, patient 24 result.
SEQ ID NO 81 (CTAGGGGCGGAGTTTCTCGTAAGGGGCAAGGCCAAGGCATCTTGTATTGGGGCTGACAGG; listed as DNA, chemistry not given here; listed as Homo sapiens)
−2.451
SEQ ID NO 33 (TATTGAATGTACACAAGTAATGATGGAGTTTGATTATATGGTTCATTTTCATTTATCCTA; DNA, backbone and methylation of C not given here; listed as Homo sapiens)
3.016
SEQ ID NO 62 (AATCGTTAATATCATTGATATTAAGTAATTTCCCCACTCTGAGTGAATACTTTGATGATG; listed as DNA, chemistry not given here; listed as Homo sapiens)
3.5
SEQ ID NO 68 (CAAAAAGAAATCTTGTTTACTTGTAAAAATATAGACTACCTCCTACTTGCCACCGTTAAG; listed as DNA, chemistry not given here; listed as Homo sapiens)
−1.38

Quick check: ncRNA array expression, patient 24 of SEQ ID NO 74 (TATATTACAGGAGTTGTCTATACGATTATAGTACCTGATTCTTTGGACATATCATTGAAC; listed as DNA, chemistry not given here; listed as Homo sapiens) ?
0.8669

----------
# Test system: ncRNAs (SEQ ID NO 28-89)
# Experiment Description: ncRNA arrays of melanocytes, keratinocytes, normal skin, melanoma cell lines and patient samples
# Set-up: species or system human
# Conditions: melanoma patient 24 sample compared to normal skin
So I've got a bunch of substances here, and I need their ncRNA array expression, patient 24 values.
Numbers only.

SEQ ID NO 70 (AGTTATAGAGGAGGCTCAGGAGGATCTGGGGAAACGGGACCAGAGGGTAAGATGGGTTAT; listed as DNA, chemistry not given here; listed as Homo sapiens)
−1.593
SEQ ID NO 79 (GTGTGTACTGATGTCAAAGACCAAATGGATGCCCCTGTGGCCAACAGTACCTTGTTAAAC; listed as DNA, chemistry not given here; listed as Homo sapiens)
2.943
SEQ ID NO 38 (GTAAACAAGGTCTCACAAAAACAGCTGACCACACCATAAAATCACTGAGACCGAGCCTGC; listed as DNA, chemistry not given here; listed as Homo sapiens)
−1.078
SEQ ID NO 88 (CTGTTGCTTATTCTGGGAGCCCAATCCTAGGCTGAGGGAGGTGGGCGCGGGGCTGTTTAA; listed as DNA, chemistry not given here; listed as Homo sapiens)
−1.128
SEQ ID NO 76 (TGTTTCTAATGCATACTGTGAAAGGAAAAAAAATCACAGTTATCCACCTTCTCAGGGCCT; listed as DNA, chemistry not given here; listed as Homo sapiens)
−1.262
SEQ ID NO 56 (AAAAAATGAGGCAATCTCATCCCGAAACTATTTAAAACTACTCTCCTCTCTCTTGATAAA; listed as DNA, chemistry not given here; listed as Homo sapiens)
−1.273
SEQ ID NO 51 (ATGTATTTTAGGTAATAAGATTTTTATCAATTGTGTCTTTTTCTTTCTTTGCTTTCTATA; listed as DNA, chemistry not given here; listed as Homo sapiens)
1.761
SEQ ID NO 80 (CACACAGCCCAGTCTGCCTGTGATGGTAATATAAATCAAACCAGGGACCCAAGAGCCCAG; listed as DNA, chemistry not given here; listed as Homo sapiens)
−1.175

# batch size: 7; output ncRNA array expression, patient 24 per entry
1. SEQ ID NO 49 (CGATGGCTTGTCATTGTCCCCTGTCCTGGAACAATAAAGCAAGTGCCTTGTGGTCTCACT; listed as DNA, chemistry not given here; listed as Homo sapiens)
2. SEQ ID NO 55 (CCTCTCCCCTTCTTGCAAAAAATATTCTATATTCAAGTTTAGGAGAAAACAGAATACTTG; listed as DNA, chemistry not given here; listed as Homo sapiens)
3. SEQ ID NO 48 (ACTTATATTCAGAGCATGTGGATTGGGACTCTGAAGAACAACTTTATGGTGGACACCTTC; listed as DNA, chemistry not given here; listed as Homo sapiens)
4. SEQ ID NO 73 (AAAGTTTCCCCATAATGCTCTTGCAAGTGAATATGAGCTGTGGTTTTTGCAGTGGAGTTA; listed as DNA, chemistry not given here; listed as Homo sapiens)
5. SEQ ID NO 63 (CTCACACGCACCCTTTCACTGTTTCTTAGTAATTTGTTTGTCTACAGACACAGACGGGAA; listed as DNA, chemistry not given here; listed as Homo sapiens)
6. SEQ ID NO 58 (ATTTATTTGACTCTAAAATGACAATATAACAACTATAAGGAATTGATATGATGTCCTTAC; listed as DNA, chemistry not given here; listed as Homo sapiens)
7. SEQ ID NO 82 (GAAGTCAGAAACTAAAGTTCCCTTCTAAGACAAAATCCTGCTTTGGAGAAAAAAAAAAAT; listed as DNA, chemistry not given here; listed as Homo sapiens)

1: −1.642; 2: −1.478; 3: 2.492; 4: 0.3377; 5: −1.093; 6: −1.757; 7: −3.02

# batch size: 3; output ncRNA array expression, patient 24 per entry
1. SEQ ID NO 42 (TAGACATAGGTTAGAGGGGGAACAGTGCTTAAAATTCCATGGAACTAAGATTTTTTTTAT; listed as DNA, chemistry not given here; listed as Homo sapiens)
2. SEQ ID NO 47 (GTATTTGTAATATTTGATTTGCTTTTAGCAGAGAAAACAATAAAAGAATCCAGGAAAAGT; listed as DNA, chemistry not given here; listed as Homo sapiens)
3. SEQ ID NO 85 (TGAGGGGAGAGGGGATGGGAAACATTAGGGCTGGGTTCATGTAAAGGGACCAGCATTGTG; listed as DNA, chemistry not given here; listed as Homo sapiens)

1: −1.66; 2: −2.489; 3: −3.14

Quick check: ncRNA array expression, patient 24 of SEQ ID NO 64 (TTGCCTAGGAACAAAGAAGGCTTGTGAGGAGATCAAGGAACTTACATGAAATTGTAGGAA; listed as DNA, chemistry not given here; listed as Homo sapiens) ?
2.424

Data origin: patent US20110143948A1
